- measurement protocol: Thermodynamic aqueous solubility of compound in pH 7.4 PBS by UPLC-MS analysis
- Format: physicochemical
- condition context: PBS pH 7.4, pH 7.4; read-out: Therm_solubility
Where a SMILES comes first, the peptide text is derived from it. [ ]: non-standard residue; d: D form. NMeY = CN[C@@H](Cc1ccc(O)cc1)C(=O)O; dNMeF = CN[C@H](Cc1ccccc1)C(=O)O; NMeA = CN[C@@H](C)C(=O)O; Sar = CNCC(=O)O
# solubility thermodynamic values compiled below
Use µM as the unit, but write only the number.

// known answers, use as guide
compound	endpoint value
CC[C@H](C)[C@@H]1NC(=O)[C@H](Cc2ccc(O)cc2)N(C)C(=O)[C@H](C)NC(=O)CN(C)C(=O)[C@@H]2CCCN2C(=O)[C@@H](Cc2ccccc2)N(C)C(=O)[C@H](CC(C)C)NC1=O (cyclo(A[NMeY]IL[dNMeF]P[Sar]))	17
CC[C@H](C)[C@@H]1NC(=O)[C@H](Cc2ccc(O)cc2)N(C)C(=O)[C@H](Cc2ccccc2)NC(=O)CN(C)C(=O)[C@H](C)N(C)C(=O)[C@@H](Cc2ccccc2)N(C)C(=O)[C@H](CC(C)C)NC1=O (cyclo(F[NMeY]IL[dNMeF][NMeA][Sar]))	37
C/C=C/C[C@@H](C)[C@@H](O)[C@H]1C(=O)N[C@@H](C)C(=O)N(C)CC(=O)N(C)[C@@H](CC(C)C)C(=O)N[C@@H](C(C)C)C(=O)N(C)[C@@H](CC(C)C)C(=O)N[C@@H](C)C(=O)N[C@H](C)C(=O)N(C)[C@@H](CC(C)C)C(=O)N(C)[C@@H](CC(C)C)C(=O)N(C)[C@@H](C(C)C)C(=O)N1C	27

Note: attention shifts to another entry.
Q: What value of measured solubility thermodynamic is listed for "C/C=C/C[C@@H](C)[C@H]1OC(=O)[C@H](C(C)C)N(C)C(=O)[C@H](CC(C)C)N(C)C(=O)[C@H](CC(C)C)N(C)C(=O)[C@@H](C)NC(=O)[C@H](C)NC(=O)[C@H](CC(C)C)N(C)C(=O)[C@H](C(C)C)NC(=O)[C@H](CC(C)C)N(C)C(=O)CN(C)C(=O)[C@H](CC)NC(=O)[C@H]1NC" ?
Ans: 2.2
